The entries below come with measured EC50 at 96 h values attached.
- assay_remarks: Cytotoxicity against mouse J774.A1 cells assessed as reduction in cell survival measured after 96 hrs by SYBR Green II dye based analysis
- Format: toxicity
Numeric answer only, unit nM assumed.

Cl.FC(F)(F)Oc1ccc(C2=CC(c3ccc[nH]3)=N/C2=C\NC23CC4CC(CC(C4)C2)C3)cc1 | 908

Now consider the entry below.
The compound listed as `Clc1ccc(OC2=CC(c3ccc[nH]3)=N/C2=C\NC2CCCCCC2)cc1` shows EC50 at 96 h equal to 367

* * *

- assay_remarks: Cytotoxicity against mouse J774.A1 cells assessed as cell survival at 0.1 uM measured after 96 hrs by SYBR Green II dye based analysis relative to control
- Assay type: toxicity
- test_conditions: read-out: Survival
reported_property: viability at 96 h, 0.1 µM (%)
Write the answer as a number in %, unit excluded.

C[C@H]1CC[C@H](N/C=C2\N=C(c3ccc[nH]3)C=C2c2ccc(OC(F)(F)F)cc2)CC1 | 116
COc1ccc(Oc2ccc(N/C=C3\N=C(c4ccc[nH]4)C4=C3CCCC4)cc2)cc1.Cl | 62.5

Shifting focus to the compound that follows.
# compound `CCC1=C/C(=C/NC2CCCCCC2)N=C1c1ccc[nH]1` ; its viability at 96 h, 0.1 µM = 32.2
